System under test: Cytochrome P450 2D6 (Homo sapiens)
Sequence (P10635 whole entry): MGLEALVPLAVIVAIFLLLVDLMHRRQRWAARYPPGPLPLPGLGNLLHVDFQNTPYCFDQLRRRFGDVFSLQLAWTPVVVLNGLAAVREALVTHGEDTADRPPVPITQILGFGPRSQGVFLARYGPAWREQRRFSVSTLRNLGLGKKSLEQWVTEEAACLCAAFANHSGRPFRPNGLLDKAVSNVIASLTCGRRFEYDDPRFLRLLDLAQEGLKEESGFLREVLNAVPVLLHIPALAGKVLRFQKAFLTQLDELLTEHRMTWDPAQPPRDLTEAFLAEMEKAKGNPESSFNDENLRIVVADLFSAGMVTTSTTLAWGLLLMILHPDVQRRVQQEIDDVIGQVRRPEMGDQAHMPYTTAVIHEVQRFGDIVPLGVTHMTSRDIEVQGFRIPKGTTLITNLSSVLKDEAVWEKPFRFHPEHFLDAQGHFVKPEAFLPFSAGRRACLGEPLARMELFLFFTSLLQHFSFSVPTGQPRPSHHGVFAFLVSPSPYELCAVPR
Assay remarks: Inhibition of CYP2D6
Format: ADME
Recorded metric: pIC50
Notebook: values listed as pIC50 are -log10 of the concentration (mol/L).

Q: // map `COc1ccc2c(-n3c(=O)n(Cc4cccc([C@@]5(C)OC(=O)NC5=O)c4)c4ccccc43)noc2c1` to recorded pIC50 (system: Cytochrome P450 2D6 (Homo sapiens))
Ans: 4.04

* * *

System under test: Cytochrome P450 2C9 (Homo sapiens)
Sequence (P11712 whole entry): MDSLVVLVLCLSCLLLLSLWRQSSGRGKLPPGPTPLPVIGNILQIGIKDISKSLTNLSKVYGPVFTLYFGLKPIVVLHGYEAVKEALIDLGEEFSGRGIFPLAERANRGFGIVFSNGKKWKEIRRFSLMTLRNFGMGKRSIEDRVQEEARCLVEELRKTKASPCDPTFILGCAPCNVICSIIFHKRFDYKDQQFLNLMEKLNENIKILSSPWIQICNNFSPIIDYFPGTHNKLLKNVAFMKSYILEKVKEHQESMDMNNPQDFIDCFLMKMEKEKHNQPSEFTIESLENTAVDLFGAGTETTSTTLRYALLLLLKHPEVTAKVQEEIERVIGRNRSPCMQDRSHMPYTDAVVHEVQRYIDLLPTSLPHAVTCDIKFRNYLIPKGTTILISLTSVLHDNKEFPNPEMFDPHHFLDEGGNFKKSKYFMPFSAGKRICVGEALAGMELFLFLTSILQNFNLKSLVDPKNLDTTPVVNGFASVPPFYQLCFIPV
Recorded metric: IC50 (nM)
# output: bare number, implied unit nM

Q: Query IC50 on Cytochrome P450 2C9 (Homo sapiens) for `COc1ccc2c(-n3c(=O)n(Cc4cccc([C@@]5(C)OC(=O)NC5=O)c4)c4ccccc43)noc2c1`
Ans: 2000

These entries and their values trace back to ChEMBL document CHEMBL1944523.
